Value source: the Immune Epitope Database (IEDB)

- tgt: HLA-A*26:01
- experimental-details: IEDB peptide-MHC binding, purified MHC/competitive/radioactivity; filed as Kd, often an IC50 or EC50 that approximates it; bounds were set here for any values at or beyond the usual limits of such assays
- experimental-conditions: source organism: Dengue virus 2 Jamaica/1409/1983
assay-metric: Kd (µM)

record_sequence=FVEGVSGGSW unit_descriptor=µM result_number=14.2
record_sequence=GVIITWIGM unit_descriptor=µM result_number=15.7
record_sequence=STVQQLTKRF unit_descriptor=µM result_number=6.79

* * *

- tgt: HLA-A*69:01
- experimental-details: IEDB peptide-MHC binding, purified MHC/competitive/fluorescence; filed as Kd, often an IC50 or EC50 that approximates it; bounds were set here for any values at or beyond the usual limits of such assays
- experimental-conditions: source organism: Escherichia coli B171
assay-metric: Kd (nM)

record_sequence=ETIGLVRAL result_number=0.6
